Biological target: DNA polymerase beta (Homo sapiens)
Assay: qHTS Assay for Inhibitors of DNA Polymerase Beta; note: potency is the fitted concentration of half-maximal effect
Conditions: Pol beta primer extension/strand displacement, fluorescence kinetic; series mostly up to 114 µM
The campaign covered roughly 340,000 compounds. About 4,500 (1.3%) were called active. Another 5% or so got no clear call; they are omitted. The entries come from a sample that favours actives as a whole.
measured-metric: Potency

Below are worked cases with known answers.
# compound, Potency
rows = [
    ("COc1ccc(-n2nc(C(=O)NCCc3ccc(Cl)cc3)c3c4ccccc4n(C)c3c2=O)cc1Cl", "inactive"),
    ("Cc1ccc(NC(=O)CCC(=O)c2ccc(Br)cc2)cc1", "89.1 µM (active)"),
    ("CCOc1ccc2[nH]c(=O)c(CN(CCCO)S(=O)(=O)c3ccc(F)cc3)cc2c1", "inactive"),
    ("COc1ccc(Cn2ccnc2SCC(=O)Nc2ccc3c(c2)OCO3)cc1", "inactive"),
    ("C=CC1C(OC2OC(CO)C(O)C(O)C2O)OC=C(C(=O)OC)C1CC1CC(=O)CC(CC(=O)CCc2ccc(O)cc2)O1 (centres undefined)", "inactive"),
    ("Cn1c(=O)c2c(-c3ccccc3Br)n(Cc3ccccc3)cc2n(C)c1=O", "inactive"),
    ("CC(/C=C/C1(O)C(C)CC(=O)CC1(C)C)OC1OC(CO)C(O)C(O)C1O (centres undefined)", "28.2 µM (active)"),
    ("CCOC(=O)c1ccc(NC(=O)Cn2c(=O)cc(C)c3c(C)nn(-c4cccc(F)c4)c32)cc1", "inactive"),
]

With those in mind, consider the next compound.
Measured Potency, COc1ccc(S(=O)(=O)N(CCCN2CCCC2=O)Cc2cc3c(C)ccc(C)c3[nH]c2=O)cc1 : 89.1 µM (active)
